Catalogue of compounds with associated NAL depletion (%)
Experiment: NAL depletion percent, HPLC-fluorescence detection
Conditions: Fluorescence method; non-allergenic substance
Experimental: 1) To a 50 mL vessel, 12.6 mg (±0.1 mg) of NAL is weighed; to this, a 25 mL measuring pipet is used to add 20 mL of 100 mmol/L phosphate buffer (pH: 10.2); and the content is gently stirred using a test tube mixture to achieve dissolution (2 mmol/L NAL solution). […]
Dear colleague, please return just the value in %, with no unit written.

Solved cases (3 shown):
Compound: C=C(C)C(=O)OCC(C)O (stereo not drawn) [2-Hydroxypropyl methacrylate]
NAL depletion (%): 0.2
--
Compound: CCOC(=O)c1ccccc1C(=O)OCC [Diethyl phthalate]
NAL depletion (%): 0.2
--
Compound: CCCCCCCCC(=O)O [Nonanoic acid]
NAL depletion (%): 0.0

Entry OCC(O)CO [Glycerol] ; NAL depletion (%) = 0.0

Entry COC(=O)c1ccc(O)cc1 [Methylparaben] ; NAL depletion (%) = 4.7

Entry CCCCCCCC(=O)O [Octanoic acid] ; NAL depletion (%) = 0.0

Entry CCCOC(=O)c1ccc(O)cc1 [Propylparaben] ; NAL depletion (%) = 4.4

Entry Nc1ccc(S(=O)(=O)O)cc1 [Sulfanilic acid] ; NAL depletion (%) = 0.1

Entry CCCCO [1-Butanol] ; NAL depletion (%) = 0.3

Entry CC(=O)C1CCCCC1=O (stereo not drawn) [2-Acetylcyclohexanone] ; NAL depletion (%) = 0.0

Entry CCCCCCCCCCCCCC(=O)OC(C)C [Isopropyl myristate] ; NAL depletion (%) = 5.8

Entry O=C(O)c1ccc(O)cc1 [4-Hydroxybenzoic acid] ; NAL depletion (%) = 0.1

// data source = patent US20210181109A1
